Values compiled from patent US20250282757A1.

# targetUnderTest: GLP-1R (Homo sapiens, UniProt P43220)
# Sequence (P43220 24-463): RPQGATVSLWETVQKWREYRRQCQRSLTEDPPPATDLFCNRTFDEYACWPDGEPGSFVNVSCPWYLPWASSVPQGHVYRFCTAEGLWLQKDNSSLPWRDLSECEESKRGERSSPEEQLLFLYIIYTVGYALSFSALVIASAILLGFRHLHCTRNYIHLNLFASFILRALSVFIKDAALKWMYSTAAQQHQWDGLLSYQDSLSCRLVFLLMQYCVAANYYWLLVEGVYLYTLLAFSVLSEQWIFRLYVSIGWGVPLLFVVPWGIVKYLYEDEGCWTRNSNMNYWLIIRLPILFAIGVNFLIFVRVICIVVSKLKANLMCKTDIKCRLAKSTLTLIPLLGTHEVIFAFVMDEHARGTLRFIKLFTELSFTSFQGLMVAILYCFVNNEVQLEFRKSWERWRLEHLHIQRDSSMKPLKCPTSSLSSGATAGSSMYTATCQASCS
# assayProtocol: Agonist activity on GLP-1R, HTRF cAMP detection in stably transfected GLP-1R/HEK293 cells
# conditionLabel: 30 min incubation

- smilesRecord: "N#CCC1(Cn2c(CN3CCC(Oc4cccc(COc5ccc(C#N)cc5F)n4)CC3)nc3c(F)cc(C(=O)O)cc32)CC1"
  EC50: "0.133 nM"
- smilesRecord: "N#Cc1ccc(OCc2cccc(OC3CCN(Cc4nc5ccc(C(=O)O)nc5n4C[C@@H]4CCO4)CC3)n2)c(F)c1"
  EC50: "0.455 nM"
- smilesRecord: "N#CCC1(Cn2c(CN3CCC(Oc4cccc(COc5ccc(Br)cc5F)n4)CC3)nc3ccc(C(=O)O)cc32)CC1"
  EC50: "0.215 nM"
- smilesRecord: "CCn1cncc1Cn1c(CN2CCC(Oc3cccc(CSc4ccc(C#N)cc4F)n3)CC2)nc2ccc(C(=O)O)cc21"
  EC50: "0.233 nM"
- smilesRecord: "CCn1cncc1Cn1c(CN2CCC(Nc3cccc(COc4ccc(C#N)cc4F)n3)CC2)nc2ccc(C(=O)O)cc21"
  EC50: "0.668 nM"
- smilesRecord: "N#Cc1ccc(OCc2cccc(OC3CCN(Cc4nc5ccc(C(=O)O)cc5n4C[C@@H]4CCO4)CC3)c2)c(F)c1"
  EC50: "1.09 nM"
- smilesRecord: "O=C(O)c1ccc2nc(CN3CCC(Oc4cccc(COc5ccc(Cl)cc5F)n4)CC3)n(C[C@@H]3CCO3)c2c1"
  EC50: "0.193 nM"

---

# targetUnderTest: GLP-1R (Homo sapiens)
# assayProtocol: Agonist activity on GLP-1R, HTRF cAMP detection in stably transfected GLP-1R/HEK293 cells
# Type: cell-based
# conditionLabel: relative to top concentration of reference GLP-1(7-37)
# Method: Detection of Agonist Activity of the Test Compounds on GLP-1R • 1) The test compound was dissolved in DMSO and diluted 4-fold with Bravo for a total of 10 concentration gradients (the starting concentration was 1 mM). […] HBSS (10 mL) pre-warmed at 37° C. was added, mixed gently, and centrifuged at 1000 rpm for 5 minutes. […] The plate was put into the EnVision microplate reader to read the values of OD665 nm and OD615 nm.
reportedEndpoint: Max activity (%)

- molecule: "N#CCC1(Cn2c(CN3CCC(Oc4cccc(COc5ccc(C#N)cc5F)n4)CC3)nc3c(F)cc(C(=O)O)cc32)CC1 [Compound 134]"
  targetUnderTest: "GLP-1R (Homo sapiens)"
  recordedNumber: 117.3
- molecule: "N#Cc1ccc(OCc2cccc(OC3CCN(Cc4nc5ccc(C(=O)O)cc5n4C[C@@H]4CCO4)CC3)c2)c(F)c1 [Compound 67]"
  targetUnderTest: "GLP-1R (Homo sapiens)"
  recordedNumber: 106.4
- molecule: "N#CCC1(Cn2c(CN3CCC(Oc4cccc(COc5ccc(C#N)cc5F)n4)CC3)nc3ccc(C(=O)O)cc32)CC1 [Compound 133]"
  targetUnderTest: "GLP-1R (Homo sapiens)"
  recordedNumber: 126.6
- molecule: "O=C(O)c1ccc2nc(CN3CCC(Oc4cccc(COc5ccc(Br)cc5F)n4)CC3)n(Cc3cncn3CC3CC3)c2c1 [Compound C19]"
  targetUnderTest: "GLP-1R (Homo sapiens)"
  recordedNumber: 134.3
- molecule: "N#CCC1(Cn2c(CN3CCC(Oc4cccc(COc5ccc(Cl)cc5F)n4)CC3)nc3ccc(C(=O)O)cc32)CC1 [Compound C84]"
  targetUnderTest: "GLP-1R (Homo sapiens)"
  recordedNumber: 136.4
- molecule: "CCn1cncc1Cn1c(CN2CCC(Oc3cccc(OCc4ccc(C#N)cc4F)n3)CC2)nc2ccc(/C=C/C(=O)O)cc21 [Compound C2]"
  targetUnderTest: "GLP-1R (Homo sapiens)"
  recordedNumber: 123.1
- molecule: "CCn1cncc1Cn1c(CN2CCC(Oc3cccc(CSc4ccc(C#N)cc4F)n3)CC2)nc2ccc(C(=O)O)cc21 [Compound C12]"
  targetUnderTest: "GLP-1R (Homo sapiens)"
  recordedNumber: 125.5
